# Test system: OVCAR-8 ovarian
# assay.comment: NCI tumour cell line growth inhibition, 48 h; in the data active = GI50 below about 0.43 µM; inactive = the rest
The reply should be one of these categories: 1 (yes) for active, 0 (no) for inactive

*Q* Name the outcome recorded for `COc1cnc2c(c1)C(=O)c1c-2n(CCCN2CCNCC2)c(=O)c2cc(F)ccc12` in the assay.
*A* 1 (yes)

*Q* Hi team, can someone confirm the assay call for `CC1(C)N=C(N)N=C(N)N1c1cccc(CC(=O)Nc2ccccc2)c1` ?
*A* 0 (no)

*Q* Any idea what this test logged for `CC(=O)Nc1ccc(/C=C/C(=O)c2sc(-n3nc(-c4ccccc4)cc3-c3ccccc3)nc2C)cc1` ?
*A* 0 (no)

*Q* Assay outcome for `N=C(N)c1ccc(-c2ccc(-c3cccs3)s2)cc1F` : what was it?
*A* 0 (no)

*Q* Would you mind telling me which call this test gave CCN(CC)CCCC(C)Nc1ccnc2cc(OC)ccc12 (stereo unspecified) ?
*A* 0 (no)

*Q* Outcome logged for CC(C)OC(=O)OCOP(=O)(OCOC(=O)OC(C)C)C1CCCN(O)C1=O (stereo unspecified) in this assay:
*A* 0 (no)
